meta.source: patent US20240116985A1

Molecular target: full-length beta-Catenin (Uniprot ID P35222) (Homo sapiens)
Construct: 10 nM full-length beta-Catenin (Uniprot ID P35222)
Sequence (P35222 whole entry): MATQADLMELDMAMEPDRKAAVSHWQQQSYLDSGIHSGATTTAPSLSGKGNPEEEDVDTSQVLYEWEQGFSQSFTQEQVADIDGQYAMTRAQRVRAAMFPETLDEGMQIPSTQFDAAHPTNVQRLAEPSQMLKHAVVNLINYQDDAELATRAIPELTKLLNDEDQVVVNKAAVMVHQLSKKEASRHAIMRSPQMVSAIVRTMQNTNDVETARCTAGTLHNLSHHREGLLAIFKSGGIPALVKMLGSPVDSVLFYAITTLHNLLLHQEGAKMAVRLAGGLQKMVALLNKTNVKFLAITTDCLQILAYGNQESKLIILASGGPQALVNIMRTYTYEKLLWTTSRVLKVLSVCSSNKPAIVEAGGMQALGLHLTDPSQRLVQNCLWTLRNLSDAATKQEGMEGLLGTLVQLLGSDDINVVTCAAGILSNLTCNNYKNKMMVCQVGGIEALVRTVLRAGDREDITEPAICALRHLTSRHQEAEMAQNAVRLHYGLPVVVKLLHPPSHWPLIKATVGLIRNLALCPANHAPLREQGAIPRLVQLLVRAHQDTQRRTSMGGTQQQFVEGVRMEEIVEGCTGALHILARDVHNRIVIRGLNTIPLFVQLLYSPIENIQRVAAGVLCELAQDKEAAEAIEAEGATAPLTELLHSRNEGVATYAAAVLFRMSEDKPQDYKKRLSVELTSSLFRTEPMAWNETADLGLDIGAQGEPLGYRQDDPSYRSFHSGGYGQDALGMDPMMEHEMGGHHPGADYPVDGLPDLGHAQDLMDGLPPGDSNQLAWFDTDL
Experiment: Fluorescence polarization IC50 (beta-catenin / 5FAM-TCF4 10-53 competition)
Assay type: binding
Details: fluorescence polarization; read-out: beta-Catenin FP IC50
Kindly apply the following: yes if IC50 is less than 30 nM, no in every other case.

Qu. Please check: IC50 for CC(=O)N1CCC[C@]12CC=CCCCC1(CCCC=CCCCOC(=O)N3CC[C@@](C(=O)N[C@@H](Cc4ccsc4)C(=O)N[C@@H](Cc4csc5ccccc45)C(=O)N[C@@H](CCO)C(N)=O)(C3)NC(=O)[C@H](CC(C)C)NC(=O)[C@H](Cc3ccccc3)NC(=O)[C@H](C)NC(=O)[C@H](C)NC(=O)[C@H](CC(=O)O)NC(=O)[C@H](CC(=O)O)NC1=O)NC(=O)[C@H](Cc1ccc(O)cc1)NC(=O)[C@H](CC(=O)O)NC2=O (some centres unmarked) [I-1512] , strictly under 30 nM or not?
Ans. yes

Qu. Please check: IC50 for CC[C@@H]1NC(=O)[C@H](Cc2ccccc2)NC(=O)[C@H](C)NC(=O)C(C)(C)NC(=O)[C@H](Cc2cccc(C(=O)O)c2)NC(=O)[C@H](CC(=O)O)NC(=O)C2(CCCC=CCCCOC(=O)N3CC[C@@](C(=O)N[C@@H](Cc4ccsc4)C(=O)N[C@@H](Cc4csc5ccccc45)C(=O)N[C@@H](CCC(=O)N4CCN(C(C)=O)CC4)C(N)=O)(C3)NC1=O)CCCC=CC[C@]1(CCCN1C(C)=O)C(=O)N[C@@H](CC(=O)O)C(=O)N[C@@H](CC(C)(C)C)C(=O)N2 (some centres unmarked) [I-2561] , strictly under 30 nM or not?
Ans. yes

Qu. Please check: IC50 for CC(=O)N1CCC[C@]12CC=CCCCC1(CCCC=CCCCOC(=O)N3CC[C@@](C(=O)N[C@@H](Cc4ccccc4C(F)(F)F)C(=O)N[C@@H](Cc4csc5ccccc45)C(=O)N[C@@H](CCC(N)=O)C(N)=O)(C3)NC(=O)[C@H](CC(C)C)NC(=O)[C@H](Cc3ccccc3)NC(=O)[C@H](C)NC(=O)[C@H](C)NC(=O)[C@H](CN(CC(=O)O)CC(F)(F)F)NC(=O)[C@H](CC(=O)O)NC1=O)NC(=O)[C@H](CC(C)(C)C)NC(=O)[C@H](CC(=O)O)NC2=O (some centres unmarked) [I-1704] , strictly under 30 nM or not?
Ans. no

Qu. Please check: IC50 for CCNC(=O)[C@H](CCC(N)=O)NC(=O)[C@H](Cc1csc2ccccc12)NC(=O)[C@H](Cc1ccccc1Cl)NC(=O)[C@]12CCN(C1)C(=O)OCCCC=CCCCC1(CCCC=CC[C@]3(CCCN3C(C)=O)C(=O)N[C@@H](CC(=O)O)C(=O)N[C@@H](CC(C)(C)C)C(=O)N1)C(=O)N[C@@H](CC(=O)O)C(=O)N[C@@H](CN(CC(=O)O)CC(F)(F)F)C(=O)N[C@@H](C)C(=O)N[C@@H](C)C(=O)N[C@@H](Cc1ccccc1)C(=O)N[C@@H]([C@@H](C)O)C(=O)N2 (some centres unmarked) [I-1240] , strictly under 30 nM or not?
Ans. no

Qu. Please check: IC50 for CC(=O)N1CCC[C@]12CC=CCCCC1(CCCC=CCCCCCC[C@@](C)(C(=O)N[C@@H](Cc3ccccc3)C(=O)N[C@@H](Cc3csc4ccccc34)C(=O)N[C@@H](CCC(N)=O)C(N)=O)NC(=O)[C@H](CCC(N)=O)NC(=O)[C@H](Cc3cccs3)NC(=O)[C@H](C)NC(=O)[C@H](C)NC(=O)[C@H](CCC(=O)O)NC(=O)[C@H](CC(=O)O)NC1=O)NC(=O)[C@H](C)NC(=O)[C@H](CC(=O)O)NC2=O (some centres unmarked) [I-487] , strictly under 30 nM or not?
Ans. no
